All values here come from ChEMBL document CHEMBL3259575.

Molecular target: Histone acetyltransferase KAT2B (Homo sapiens) (UniProt Q92831)
Sequence (Q92831 whole entry, looked up, the tested form may be a part): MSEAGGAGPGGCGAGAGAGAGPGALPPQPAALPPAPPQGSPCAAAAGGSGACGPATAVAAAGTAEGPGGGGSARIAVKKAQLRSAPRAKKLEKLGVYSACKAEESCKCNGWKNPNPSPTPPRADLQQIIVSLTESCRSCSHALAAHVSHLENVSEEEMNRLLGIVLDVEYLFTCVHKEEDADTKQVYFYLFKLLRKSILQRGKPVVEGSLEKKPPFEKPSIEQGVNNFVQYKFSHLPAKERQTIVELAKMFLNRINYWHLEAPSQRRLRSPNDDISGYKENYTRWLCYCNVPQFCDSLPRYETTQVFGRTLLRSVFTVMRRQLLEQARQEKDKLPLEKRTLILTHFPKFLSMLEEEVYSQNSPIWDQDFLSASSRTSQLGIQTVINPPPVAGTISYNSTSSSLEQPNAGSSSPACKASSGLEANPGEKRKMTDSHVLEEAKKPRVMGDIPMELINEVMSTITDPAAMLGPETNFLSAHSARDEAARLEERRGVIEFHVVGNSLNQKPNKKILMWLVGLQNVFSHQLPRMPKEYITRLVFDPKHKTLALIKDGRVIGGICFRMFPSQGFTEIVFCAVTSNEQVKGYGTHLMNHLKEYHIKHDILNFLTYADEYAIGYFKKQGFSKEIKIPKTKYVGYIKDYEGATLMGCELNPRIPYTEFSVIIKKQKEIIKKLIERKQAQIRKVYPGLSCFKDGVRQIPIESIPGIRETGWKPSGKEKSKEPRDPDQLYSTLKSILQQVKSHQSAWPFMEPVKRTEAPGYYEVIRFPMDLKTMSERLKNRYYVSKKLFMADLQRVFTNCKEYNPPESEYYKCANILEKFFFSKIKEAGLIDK
Assay: Inhibition of recombinant human PCAF catalytic domain (492 to 658 aa) using histone H3 at 100 uM after 1 hr by radiochemical assay in presence of [acetyl-3H]-acetyl coenzyme A
measurementName: inhibition (%)
One number for each entry, in %.

Example entries and their recorded answers appear below.
smiles | inhibition, %
CCC(CC)=NNc1nc(-c2ccc(Cl)cc2)cs1 | 10
C=CCC/C(C)=N/Nc1nc(-c2ccc(Cl)cc2)cs1 | 12

I'm hoping you can list inhibition for every compound here, please.
1. COc1ccc(-c2csc(NN=C(C)C)n2)cc1
2. Clc1ccc(-c2csc(NN=C3CCCC3)n2)cc1
3. CC(C)=NNc1nc(C)cs1
4. COc1ccc(-c2csc(NN=C3CCCC3)n2)cc1

5
1
3
11

I'm hoping you can list inhibition for every compound here, please.
1. CC(C)=NNc1nc(-c2ccc3ccccc3c2)cs1
2. Clc1ccc(-c2csc(NN=C3CCCC3)n2)c(Cl)c1
3. COc1ccc(-c2csc(N/N=C3\CCC[C@@H](C)C3)n2)cc1
4. CC(C)=NNc1nc(-c2ccc(Cl)cc2)cs1
5. Clc1ccc(-c2csc(N/N=C\c3ccc4c(c3)OCO4)n2)cc1
6. CCCCC/C(C)=N/Nc1nc(-c2ccc(Cl)cc2)cs1

1: 10; 2: 21; 3: 0; 4: 1; 5: 0; 6: 16
